Cited source for all entries: PubChem BioAssay (NCI)

TGI values for the molecules below.
- System: SNB-78 CNS
- protocol_description: NCI tumour cell line growth inhibition, 48 h

COc1ccc(-c2cc(-c3ccccc3)c(C#N)c(=O)n2C2OC(CO)C(O)C(O)C2O)cc1 (stereo unspecified) | > 100 µM
O=C1[C@@H]2C3c4ccccc4C([C@@H]2C(=O)N1c1ccccc1)S3(=O)=O | > 100 µM
CC(C)=CCc1c(O)ccc2ccc(=O)oc12 | > 100 µM
O=c1n(-c2ccccc2)c(=O)n2n1C1C=CC2C2C(C1)C2(Cl)Cl (stereo unspecified) | > 100 µM

Incoming: Request - read-out TGI | tested on SNB-78 CNS | molecule O=C(CC(=O)c1ccccc1)CC(O)(c1ccccc1)c1ccccc1
Outgoing: 81 µM

Incoming: Same question for COc1cccc(/C=N/[N-]C(=O)c2ccncc2)c1[O-].[Cu+2].[OH3+] please.
Outgoing: > 100 µM
